Numbers sourced from PubChem BioAssay AID330.

Overview of reported T/C across a group of compounds:
Test system: P388 leukemia ip, CD2F1 mice, survival T/C
Assay: NCI In Vivo Anticancer Drug Screen. Data for tumor model P388 Leukemia (intraperitoneal) in CD2F1 (CDF1) mice
Settings: endpoint: median survival time; dose: 50.0 mg/kg/injection; schedule: Q01DX001 (ip); vehicle: Klucel (hydroxypropylcellulose) (HPC); higher = longer survival
Toxic doses and inconclusive results are not listed.
quantity: T/C

INSERT INTO assay_data (compound, measurement) VALUES
  ('N#CC1CCCC(CCc2ccccc2)(c2ccccc2)C1=N (stereo not drawn)', '100 % of control'),
  ('COc1ccc(C2CC(=O)CC2c2ccc(OC)cc2)cc1 (stereo not drawn)', '99 % of control'),
  ('OC1(c2ccccc2)C(c2ccccc2)=C(c2ccccc2)C(c2ccc(CCc3ccc(C4=C(c5ccccc5)C(O)(c5ccccc5)C(c5ccccc5)=C4c4ccccc4)cc3)cc2)=C1c1ccccc1 (stereo not drawn)', '94 % of control'),
  ('Cc1cc(=O)n2c3c(c4c(cc13)c(CBr)cc(=O)n4C)OC2', '112 % of control'),
  ('COC(=O)[C@@H]1[C@@H]2O[C@@H]2[C@H]2O[C@H]2[C@H]1C(=O)O', '99 % of control'),
  ('O=C(CBr)c1cc2c(cc1Br)OCO2', '103 % of control'),
  ('Cc1ccc(S(=O)(=O)N/N=C/c2c(Cl)n(C(=O)c3ccccc3F)c3ccccc23)cc1', '93 % of control'),
  ('COc1cc2cc(-c3ccc4c(c3)OCO4)[n+](C)cc2cc1OC', '96 % of control');
